- system tested: T1, GLP-1R (INS1e assay) (UniProt P32301 22-463, limits assumed)
- T1 sequence (looked up): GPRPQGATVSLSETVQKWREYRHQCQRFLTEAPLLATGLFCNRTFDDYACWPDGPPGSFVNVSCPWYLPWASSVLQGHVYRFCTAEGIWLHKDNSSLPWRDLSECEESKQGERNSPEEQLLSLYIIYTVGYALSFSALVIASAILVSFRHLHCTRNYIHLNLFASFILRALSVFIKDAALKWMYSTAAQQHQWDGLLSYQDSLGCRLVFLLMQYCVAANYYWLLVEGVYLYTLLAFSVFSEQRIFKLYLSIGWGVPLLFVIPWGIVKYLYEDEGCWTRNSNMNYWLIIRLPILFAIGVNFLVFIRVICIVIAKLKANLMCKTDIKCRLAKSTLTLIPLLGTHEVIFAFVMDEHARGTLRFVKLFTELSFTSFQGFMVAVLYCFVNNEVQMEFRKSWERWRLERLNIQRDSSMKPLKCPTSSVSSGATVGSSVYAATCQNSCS
- measurement description: cell-based or functional assay
Starred links: 1 amine or outer side, 2 acyl side, 3 side chain; linkers in the order of their positions; H or OH if unused. Non-standard residues stand in square brackets, D forms with d. Groups on a side chain read outwards from the residue. Primed or numbered codes have the meaning given here. No end group written: not given here. *: point of attachment. γGlu = O=C(O)[C@H](CCC(=O)[*:2])N[*:1]; Stearoyl = CCCCCCCCCCCCCCCCCC(=O)*; αMeF = C[C@](N)(Cc1ccccc1)C(=O)O; αMeK = C[C@](N)(CCCCN)C(=O)O; αMeS = C[C@](N)(CO)C(=O)O; PEG2′ = not defined here; Aib = CC(C)(N)C(=O)O
observation type: INS1e assay EC50 GLP-1 R n1 (nM)

- binder: "H[Aib]EGSFTSDV[αMeS]S[αMeF]LEGEAAK([PEG2′-PEG2′-γGlu-Stearoyl])E[αMeF]IA[αMeF]VV[αMeK]GG-NH2 [SEQ ID NO 45]"
  unit tag: "nM"
  INS1e assay EC50 GLP-1 R n1: 76.1

A: H[Aib]EGS[αMeF]TSDV[αMeS]S[αMeF]LEGEAA[αMeK]E[αMeF]IA[αMeF]K([PEG2′-PEG2′-γGlu-Stearoyl])V[αMeK]GG-NH2 [SEQ ID NO 103]
B: H[Aib]EGS[αMeF]TSDV[αMeS]S[αMeF]LEGEAA[αMeK]E[αMeF]IA[αMeF]VVK([PEG2′-PEG2′-γGlu-Stearoyl])GG-NH2 [SEQ ID NO 101]
C: H[Aib]EGS[αMeF]TSDVSS[αMeF]LEGEAAK([PEG2′-PEG2′-γGlu-Stearoyl])E[αMeF]IA[αMeF]VV[αMeK]GG-NH2 [SEQ ID NO 46]
Arrange these binders by their INS1e assay EC50 GLP-1 R n1, starting with the largest number. Please, when replying, give the labels in the order that was requested.
C, B, A
(C: 52.6 nM, B: 1.47 nM, A: 0.428 nM)
